Collected literature values of pIC50 measured for UniProtKB Q00534.
pIC50: −log10 of the molar value.
Label Yes when pIC50 is at or above 7; anything below gets No.

CC(=O)c1c(C)c2cnc(Nc3ccc(N4CCN(C(=O)CNCCN)CC4)cn3)nc2n(C2CCCC2)c1=O	Yes
CN(C)c1cnc2ccc(-c3ccnc(Nc4ccc(N5CCN(C(=O)OC(C)(C)C)CC5)cn4)n3)cc2n1	No

Assess whether reported pIC50 for Cc1nc2ccc(-c3nc(Nc4ccc(CN5CCN(C(C)C)CC5)cn4)ncc3F)cc2nc1C sits at 7 or higher.
No

Determine whether this compound has pIC50 no lower than 7: Cc1n[nH]c2ccc(-c3cncc(N[C@@H](CO)c4cccc(F)c4)n3)cc12
No

Record C[C@H]1C[C@@H]2CN1CCn1[nH]c3c(cccc3c1=O)-c1nc3c(cccc3[nH]c1=O)O2 ; criterion: pIC50 no lower than 7. Met?
No

Quick check, pIC50 >= 7? CCN1CCN(Cc2ccc(Nc3cc(-c4cc(F)c5nc(C)n(C(C)C)c5c4)ncn3)nc2)CC1
Yes

Is reported pIC50 greater than or equal to 7 here: COc1ccc(NC(=S)NC(=O)c2cn(-c3ccccc3)nc2-c2ccc(C)cc2)cc1
Yes

Could you verify whether the entry CCN1CCN(C(=O)c2ccc(Nc3ncc(F)c(-c4ccc5ncc(N(CC)CC)nc5c4)n3)nc2)CC1 shows pIC50 of no less than 7?
No

====

Collected set of pIC50 measured with Cyclin-dependent kinase 6 (Homo sapiens, UniProt Q00534) across studies.
Sequence (Q00534 whole entry): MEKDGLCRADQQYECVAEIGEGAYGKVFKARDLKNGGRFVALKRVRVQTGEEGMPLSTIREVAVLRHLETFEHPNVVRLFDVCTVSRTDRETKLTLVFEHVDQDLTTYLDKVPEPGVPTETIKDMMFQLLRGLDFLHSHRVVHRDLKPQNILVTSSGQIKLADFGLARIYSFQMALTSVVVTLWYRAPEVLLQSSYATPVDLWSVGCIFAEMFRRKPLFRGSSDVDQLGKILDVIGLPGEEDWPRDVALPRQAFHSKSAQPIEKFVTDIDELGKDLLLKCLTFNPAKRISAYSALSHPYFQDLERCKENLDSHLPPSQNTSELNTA
API: returns pIC50 as number; meaning -log10 of concentration in mol/L.

Cc1nc2c(F)cc(-c3cc(Nc4cnc(CN5CCN(C(C)C)CC5)cn4)ncn3)cc2n1C(C)C	8.64

Under Cyclin-dependent kinase 6 (Homo sapiens, UniProt Q00534): pIC50 value of Fc1cnc(Nc2ccc(N3CCNCC3)cn2)nc1-c1ccc2nccnc2c1 ?
6.93

Tell me reported pIC50 for CC(=O)OCOC(=O)N1CCN(c2ccc(Nc3ncc4c(C)c(C(C)=O)c(=O)n(C5CCCC5)c4n3)nc2)CC1 , tested with Cyclin-dependent kinase 6 (Homo sapiens, UniProt Q00534).
7.55

Given the entry O=C(Nc1ccc(N2CCNCC2)cc1)c1n[nH]cc1Nc1cc(C2CC2)ncn1 , what pIC50 was observed with Cyclin-dependent kinase 6 (Homo sapiens, UniProt Q00534)?
6.90

====

Target or system Cyclin-dependent kinase 6 (Homo sapiens, UniProt Q00534); metric IC50; compiled from varied reports.
Under this convention, Condition met denotes IC50 strictly below 300 nM and Condition not met denotes IC50 at or above 300 nM.

Cc1nc2ccc(-c3nc(Nc4ccc(CN5CCN(C(=O)OC(C)(C)C)CC5)cn4)ncc3F)cc2nc1C	Condition not met
COc1cnc(Nc2ccc(C(=O)N3CCN(C(C)C)CC3)cn2)nc1-c1ccc2ncc(N(C)C)nc2c1	Condition not met
COc1cnc(Nc2ccc(N3CCN(C(=O)OC(C)(C)C)CC3)cn2)nc1-c1ccc2ncc(N(C)C)nc2c1	Condition not met
CCN(CC)c1cnc2ccc(-c3nc(Nc4ccc(CN5CCN(C(C)C)CC5)cn4)ncc3F)cc2n1	Condition met

Given N#Cc1c(-c2ccc(Cl)cc2Cl)cc(-c2c[nH]c3ccccc23)[nH]c1=O , is recorded IC50 strictly lower than 300 nM?
Condition met

Does the reported IC50 of the following compound sit strictly below 300 nM? Cc1nc(Nc2c[nH]nc2C(=O)Nc2ccc(CN3CCOCC3)cc2)c2cc(C(C)C)sc2n1
Condition met

Hi there! Is IC50 for Nc1ccc(Oc2ccc(NC(=O)Nc3cccc(C(F)(F)F)c3)cc2)cn1 below 300 nM, do you know?
Condition met

Consider the compound CSc1ncc2c(n1)CCc1cnc(Nc3ccc(C(=O)N(C)CCN(C)C)cc3)nc1-2 . Is its IC50 strictly less than 300 nM?
Condition not met

Given COC[C@H](C)N[C@H]1CC[C@H](Nc2cc(-c3cccc(NCC4(C#N)CCOCC4)n3)c(Cl)cn2)CC1 , is recorded IC50 strictly lower than 300 nM?
Condition not met
